Source of measurements: ChEMBL document CHEMBL4706664

Biological target: UniProtKB Q9UNQ0
Sequence (Q9UNQ0 whole entry): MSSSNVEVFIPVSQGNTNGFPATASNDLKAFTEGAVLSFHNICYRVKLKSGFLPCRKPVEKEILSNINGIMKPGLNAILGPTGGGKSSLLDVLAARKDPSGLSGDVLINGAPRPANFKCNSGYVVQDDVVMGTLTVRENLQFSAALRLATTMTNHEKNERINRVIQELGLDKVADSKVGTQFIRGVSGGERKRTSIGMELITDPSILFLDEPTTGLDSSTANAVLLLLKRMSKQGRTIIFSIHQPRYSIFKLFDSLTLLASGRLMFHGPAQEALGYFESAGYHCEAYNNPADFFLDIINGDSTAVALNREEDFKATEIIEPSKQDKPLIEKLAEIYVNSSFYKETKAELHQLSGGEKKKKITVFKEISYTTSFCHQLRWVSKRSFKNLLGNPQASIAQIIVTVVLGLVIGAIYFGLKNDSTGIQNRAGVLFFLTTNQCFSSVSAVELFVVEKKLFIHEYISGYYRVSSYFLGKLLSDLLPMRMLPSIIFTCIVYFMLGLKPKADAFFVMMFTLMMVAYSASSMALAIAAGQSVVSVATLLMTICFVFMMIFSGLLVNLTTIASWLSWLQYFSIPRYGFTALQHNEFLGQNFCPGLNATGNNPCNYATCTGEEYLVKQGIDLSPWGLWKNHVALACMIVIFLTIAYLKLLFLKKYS
Experiment: Inhibition of ABCG2 (unknown origin) expressed in MDCK-II cells assessed as reduction in pheophorbide A efflux measured after 2 hrs by flow cytometry
MEASURED_ATTRIBUTE: IC50 (nM)
All answers are understood in nM, so give the number only.

CCCCNc1cc(Nc2ccc(C#N)cc2)nc(-c2ccccc2)n1
500

What value of IC50 has been reported for the following molecule? N#Cc1ccc(Nc2cc(-c3ccccc3)nc(-c3ccccc3)n2)cc1 4410

Okay, and N#Cc1ccc(Nc2ccnc(-c3ccccc3)n2)cc1 ? 189

Same for N#Cc1ccc(Nc2cc(NCCCCc3ccccc3)nc(-c3ccccc3)n2)cc1 147
